Ref: patent US20260092057A1

// values below are reported Dmax
- system: BCL-XL (Homo sapiens)
- Construct: BCL-XL degradation results in MOLT-4 cells for compounds of the invention; endogenous in cells; host or cells: MOLT-4
- Sequence (Q07817 whole entry): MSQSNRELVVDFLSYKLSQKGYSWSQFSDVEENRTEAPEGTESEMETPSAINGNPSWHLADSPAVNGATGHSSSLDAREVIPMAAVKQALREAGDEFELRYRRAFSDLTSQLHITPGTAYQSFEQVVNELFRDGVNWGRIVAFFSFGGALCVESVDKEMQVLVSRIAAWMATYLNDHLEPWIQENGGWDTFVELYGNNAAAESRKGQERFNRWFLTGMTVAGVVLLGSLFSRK
- experimentalDetails: BCL-XL degradation assay in MOLT-4 cells (ELISA, 6 h)
- Format: cell-based

compound: Cc1ncsc1-c1ccc([C@H](C)NC(=O)[C@@H]2C[C@@H](O)CN2C(=O)[C@@H](NC(=O)CCCCC(=O)N2CCN(CCCNc3ccc(S(=O)(=O)NC(=O)c4ccc(N5CCN(CC6=C(c7ccc(Cl)cc7)CC(C)(C)CC6)CC5)cc4Oc4cnc5[nH]ccc5c4)cc3S(=O)(=O)C(F)(F)F)CC2)C(C)(C)C)cc1 [I-63]
Dmax: 50 to 75%
--
compound: Cc1ncsc1-c1ccc([C@H](C)NC(=O)[C@@H]2CC(O)CN2C(=O)[C@@H](NC(=O)CCCCCCC(=O)N2CCN(c3ccc(-c4ccc(Cl)cc4)c(CN4CCN(c5ccc(C(=O)NS(=O)(=O)c6ccc(N[C@H](CCN(C)C)CSc7ccccc7)c([N+](=O)[O-])c6)cc5)CC4)c3)CC2)C(C)(C)C)cc1 (stereo partly drawn) [I-4]
Dmax: 50 to 75%

Reported Dmax for Cc1ncsc1-c1ccc([C@H](C)NC(=O)[C@@H]2C[C@@H](O)CN2C(=O)[C@@H](NC(=O)CCCCCC(=O)N2CCN(Cc3ccc(-c4ccc(Cl)cc4)c(CN4CCN(c5ccc(C(=O)NS(=O)(=O)c6ccc(N[C@H](CCN(C)C)CSc7ccccc7)c([N+](=O)[O-])c6)cc5)CC4)c3)CC2)C(C)(C)C)cc1 [I-7] : what is it?
< 50%
